Entry source: patent US20240218057A1

tested system: T1, SARS-COV-2 RBD (SARS-COV-2, UniProt P0DTC2 319-539)
T1 construct: also called WT RBD
protocol text: ELISA, RBD coated
Please note: EC50 exactly at 3 ng/mL is not met. Only values below 3 ng/mL get met.

binder	category label
C985 (antibody, V domains shown, IgG; V domains only) VH: QVQLVQSGAEVKKPGASVKVSCKASGYIFTGYYMHWVRQAPGQGLEWMGRINPNSGGSRYAEKFQGRVTMTRDTSIITAFMELRGLKSDDTAVYYCAREPIEAVPAGIIVNYYYMDVWGNGTTVTVSS VL: QSALTQPASVSGSPGQSITISCTGTSSDVGGYNYVSWYQQHPGKAPKLMIYDVTSRPSGVSDRFSGSKSGTTASLTISGLQAEDEADYYCSSFTSAFTLVVFGGGTKLTVL	not met
C1044 (antibody, V domains shown, IgG; V domains only) VH: QVQLQESGPGLVKPSQTLSLTCTVSGGSISSGNYYLTWIRQPAGKGLEWIGHIYTSGSTNYNPSLKSRVTISVDTSMNQFSLKLSSVTAADTAVYYCARDIPPTWYFDLWGRGTLVTVSS VL: SYELTQPPSVSVAPGKTARITCGGNNIGSKNVHWYQQKPGQAPVLVVYDDSDRPSGIPERFSGSNSGNTATLTISRVEAGDEAGYYCQVWDSTSDHLFWVFGGGTKLTVL	not met
C897 (antibody, V domains shown, IgG; V domains only) VH: QVQLVESGGGVVQPGRSLRLSCAASGFIFSHYGMHWVRQAPGKGLEWVAVILYDGSDQYYADSVKGRFTISRDNSKNTLFLEMNSLRLEDTAVYYCAKGGGQYCSHGNCYLNYFDYWGQGALVTVSS VL: DIQMTQSPSSLSASVGDRVTITCQASQDIRDNLNWYQQKPGKAPQLLIYDASNLQPGVPSRFSGSGSGTHFTFTISRLQPEDIATYFCQQYANLPTTFGPGTKVDIK	met

State whether 3 ng/mL exceeds EC50 recorded for C1003 (antibody, V domains shown, IgG; V domains only) VH: QVQLVESGGGVVQPGRSLRLSCAASGFAFSSYGMNWVRQAPGKGLEWVTTVSSDGNVNYYIDSVKGRFTISRDNSKNTLYLQMNSLRGDDTAVYYCAKGPRFGWSYRGGSGFDIWGQGTMVTVSS VL: DIQMTQSPSSLSASVGDRVTITCQASQDISNYLNWYQQKPGKAPKLLIYDASNLETGVPSRFSGSGSGTDFTFTITSLQPEDIATYYCQQYDNLPITFGQGTRLEIK .
met

Same read-out for C873 (antibody, V domains shown, IgG; V domains only) VH: QVQLVQSGPEVKKPGASVKVSCKASGYIFTDYSIHWVRQAPGQGLEWMGWINPNSGGGNSAQIFKGRATMARDTSITTVYMDLSGLRSDDTAVYYCARGPLFHKVVYESSSGFHDGLDFWGQGTMVTVSS VL: QSALTQPASVSGSPGQSVTISCTGTSSDVGGYNFLSWYQQHPGKAPKLLLYEVINRPSGVSDRFSGSKSGNTASLTISGLQAEDEADYYCNSYTSNFTWVFGGGTHLTV ?
not met

Entry C869 (antibody, V domains shown, IgG; V domains only) VH: QVQLVESGGGVVQPGTSLRLSCAASGFTFSSFGMNWVRQAPGKGLEWVAVIFFDGSKTYYADSVKGRFTISRDNSKNTLYLQMNSLRTEDTAVYYCAKGQLRLGEFDDYWGQGTLVTVSS VL: DIQMTQSPSSLSASVGDRVTITCRASQDIRDDLNWYQHKPGKAPKLLIYTASSLQSGVPSRFSGSGSGTDFTLTISRLQPEDFASYYCLQDHNYPLTFGQGTKLEIK please
not met

Here is the next binder: C1042 (antibody, V domains shown, IgG; V domains only) VH: QVQLVQSGAEVKKPGASVKVSCKASGYTFSDHYIYWVRQAPGQGLEWMGIINPSGGSTSYAQKFQGRVTMTRDTSTSTVYMELSSLKSEDTAVYYCSRDIVFVPATMAMDVWGQGTTVTVSS VL: EIVLTQSPATLSLSPGERATLSCRASQSVSRYLAWYQQKPGQAPRLLIYDASNRATGIPARFSGSGSGTDFTLTISSLEPEDFAVYYCQQRSNWLFTFGPGTKVDIK
not met

Continue with C891 (antibody, V domains shown, IgG; V domains only) VH: EVQLVESGGGLVKPGGSLRLSCAVSGFTFSNVWMSWVRQAPGKGLEWVGRIKSKTDGGTTDYAAPVKGRFTISRDDSKNTLYLQMNSLKTEDTAVYYCTSQLWLRGPGDYWGQGTLVTVSS VL: NFMLTQPHSVSESPGKTVTISCTGSSGSIASNYVQWYQQRPGSAPTTVIYEDNQRPSGVPDRFSGSIDSSSNSASLTISGLKTEDEADYYCQSYDSSLNWVFGGGTKLTVL
met

Also C859 (antibody, V domains shown, IgG; V domains only) VH: QVQLVQSGAELKKPGASVRVSCKASGYTFTDYYIHWVRQAPGQGFEWMGWINPDSGGTNYPQNFQGRVTMTRGTSISTAYVELTRLRFDDTAVYYCARTSSPHSSSTGDLDYWGQGTLVTVS VL: SYELTQSPSVSVAPGKTARITCGGRDIGSKSVHWYQQRPGQAPVLVISYDNDRPSGIPERFSGSNSGNTATLTISRVEAGDEADYYCQVWDGTGDHPGWVFGGGTRLTVL , if possible.
met
